Biological target: ADP-induced human platelet aggregation (Homo sapiens, UniProt P05106+P08514)
Sequence (P08514 32-1039): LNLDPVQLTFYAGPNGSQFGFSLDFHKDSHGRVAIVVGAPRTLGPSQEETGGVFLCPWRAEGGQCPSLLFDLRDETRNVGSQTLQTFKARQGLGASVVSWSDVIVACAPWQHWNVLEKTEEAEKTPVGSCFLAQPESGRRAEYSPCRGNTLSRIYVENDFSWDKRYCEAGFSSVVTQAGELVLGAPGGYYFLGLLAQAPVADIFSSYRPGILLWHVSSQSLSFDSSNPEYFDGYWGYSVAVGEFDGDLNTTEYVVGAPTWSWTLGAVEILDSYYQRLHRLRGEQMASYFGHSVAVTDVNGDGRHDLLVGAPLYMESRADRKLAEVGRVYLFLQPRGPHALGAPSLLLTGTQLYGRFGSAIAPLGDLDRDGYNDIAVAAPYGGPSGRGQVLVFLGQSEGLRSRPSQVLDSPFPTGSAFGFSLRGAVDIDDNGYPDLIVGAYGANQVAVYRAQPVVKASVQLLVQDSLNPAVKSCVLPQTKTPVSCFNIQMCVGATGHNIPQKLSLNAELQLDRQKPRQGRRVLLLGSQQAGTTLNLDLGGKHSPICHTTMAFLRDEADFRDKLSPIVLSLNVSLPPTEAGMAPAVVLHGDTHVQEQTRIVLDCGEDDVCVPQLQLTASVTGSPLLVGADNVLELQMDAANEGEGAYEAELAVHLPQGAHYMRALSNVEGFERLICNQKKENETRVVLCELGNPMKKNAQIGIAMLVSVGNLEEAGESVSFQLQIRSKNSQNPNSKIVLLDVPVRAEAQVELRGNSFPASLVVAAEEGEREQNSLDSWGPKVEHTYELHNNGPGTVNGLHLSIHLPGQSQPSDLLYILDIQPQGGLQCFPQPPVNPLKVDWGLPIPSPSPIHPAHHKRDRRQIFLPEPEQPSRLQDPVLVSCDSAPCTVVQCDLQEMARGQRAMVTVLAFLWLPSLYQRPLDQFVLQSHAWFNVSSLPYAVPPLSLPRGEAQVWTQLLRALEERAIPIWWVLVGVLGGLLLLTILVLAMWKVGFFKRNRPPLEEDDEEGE
Sequence (P05106 27-788): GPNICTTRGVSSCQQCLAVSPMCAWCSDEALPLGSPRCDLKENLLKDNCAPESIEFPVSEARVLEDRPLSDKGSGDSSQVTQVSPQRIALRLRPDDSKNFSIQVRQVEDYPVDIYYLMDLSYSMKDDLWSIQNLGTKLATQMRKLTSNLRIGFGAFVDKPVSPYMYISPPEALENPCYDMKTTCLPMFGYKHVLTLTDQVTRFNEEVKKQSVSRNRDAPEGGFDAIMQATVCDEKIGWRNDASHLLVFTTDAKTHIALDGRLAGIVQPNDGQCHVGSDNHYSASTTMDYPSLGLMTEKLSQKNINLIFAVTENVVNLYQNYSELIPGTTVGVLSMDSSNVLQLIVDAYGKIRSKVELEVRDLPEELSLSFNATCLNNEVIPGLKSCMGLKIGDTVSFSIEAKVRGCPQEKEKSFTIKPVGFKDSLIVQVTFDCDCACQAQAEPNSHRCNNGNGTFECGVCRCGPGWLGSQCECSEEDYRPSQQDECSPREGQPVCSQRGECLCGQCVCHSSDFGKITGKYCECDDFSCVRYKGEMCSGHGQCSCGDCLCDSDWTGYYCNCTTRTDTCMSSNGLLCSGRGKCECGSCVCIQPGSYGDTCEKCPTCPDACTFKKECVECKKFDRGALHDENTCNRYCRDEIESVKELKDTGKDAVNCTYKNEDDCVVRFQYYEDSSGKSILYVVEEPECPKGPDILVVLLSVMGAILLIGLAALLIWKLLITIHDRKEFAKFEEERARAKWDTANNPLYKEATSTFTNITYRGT
Test: standard aggregation inhibition assay (ADP-induced human platelet aggregation)
Assay type: cell-based
Conditions: ADP-induced human platelet aggregation; read-out: Appr, IC50
Where no end group is shown, it is not given here.
For each record, write down the corresponding pIC50.
Value format note: pIC50 is -log10 of concentration (mol/L); just state the number.

Query: Looking for the measured pIC50 of CKGDWPC-NH2 (cysteine pairing not given here) [Analog #10] , can you help?
Response: 5.30

Query: Same for CKGDIPC-NH2 (cysteine pairing not given here) [Analog #41]
Response: 4.00

Query: And the next one, CKGDWGC-NH2 (cysteine pairing not given here) [Analog #34] ?
Response: 4.00

Query: Proceed to CKADWPC-NH2 (cysteine pairing not given here) [Analog #37]
Response: 4.00

Query: What about this substance? CKGDFPC-NH2 (cysteine pairing not given here) [Analog #13]
Response: 4.70

Query: One more substance: Mpr-Har-Sar-D-W-P-C-NH2 [Analog #68]
Response: 5.52

Query: CHGDWPC-NH2 (cysteine pairing not given here) [Analog #46] ?
Response: 3.70

Query: Lookup Ac-CKGDWPC-NH2 (cysteine pairing not given here) [Analog #47]
Response: 5.60

Query: What do you get for CKGDYPC-NH2 (cysteine pairing not given here) [Analog #12] ?
Response: 4.92
